System: K12877-001-R-J1-PDC complex spheroid viability;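 note: tumour cells co-cultured with HUVEC and mesenchymal stem cells in spheroids; spheroids exposed to agents for one week before readout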
Assay: Anticancer human tumor K12877-001-R-J1-PDC patient-derived lung adenocarcinoma cell line growth inhibition [RAS]
Conditions: second compound 0.000949 µM; first compound 0.316 µM; stronger effect = lower value
Source text: RAS pathway inhibitors in Combinations in Complex Spheroids A high-throughput screen of multi-cell type tumor spheroids was designed to identify active combinations of RAS pathway inhibitors and targeted small molecules. Complex spheroids include a stromal component modeled by human endothelial cells (HUVEC) and fibroblasts modeled by human mesenchymal stem cells (MSCs). […] Compounds. […] If the clinical Cmax for an agent had not been determined, the highest concentration tested was 10 microM. […]
Each entry below carries its recorded viability, T/C.
Response body: numeric value in %, unit text excluded.

compound	studyTarget	viability, T/C, %
C=CC(=O)Nc1cc(Nc2nccc(-c3cn(C)c4ccccc34)n2)c(OC)cc1N(C)CCN(C)C + CCn1c(-c2cccnc2C(C)OC)c2c3cc(ccc31)N1CCOC(CC(NC(=O)C(C(C)C)N(C)C(=O)C3(F)CCN(C(=O)C#CC(C)(C)N(C)C)CC3)C(=O)N3CCCC(N3)C(=O)OCC(C)(C)C2)C1	K12877-001-R-J1-PDC complex spheroid viability	78
CC(=O)OC12COC1CC(O)C1(C)C(=O)C(O)C3=C(C)C(OC(=O)C(O)C(NC(=O)OC(C)(C)C)c4ccccc4)CC(O)(C(OC(=O)c4ccccc4)C21)C3(C)C (stereo unspecified) + CCn1c(-c2cccnc2C(C)OC)c2c3cc(ccc31)N1CCOC(CC(NC(=O)C(C(C)C)N(C)C(=O)C3(F)CCN(C(=O)C#CC(C)(C)N(C)C)CC3)C(=O)N3CCCC(N3)C(=O)OCC(C)(C)C2)C1	K12877-001-R-J1-PDC complex spheroid viability	3.64
NC1c2ccccc2OC12CCN(c1cnc3c(N4CCCc5ncccc54)n[nH]c3n1)CC2 (stereo unspecified) + CCn1c(-c2cc(N3CCN(C)CC3)cnc2C(C)OC)c2c3cc(ccc31)-c1csc(n1)CC(NC(=O)C1CC1C)C(=O)N1CCCC(N1)C(=O)OCC(C)(C)C2	K12877-001-R-J1-PDC complex spheroid viability	58

Exercise: May I ask what viability, T/C has been recorded for C=CC(=O)N1CCN(c2nc(OCC3CCCN3C)nc3c(F)c(-c4nc(N)cc(C)c4C(F)(F)F)c(Cl)cc23)C(C)C1 (stereo unspecified) + CCn1c(-c2cc(N3CCN(C)CC3)cnc2C(C)OC)c2c3cc(ccc31)-c1csc(n1)CC(NC(=O)C1CC1C)C(=O)N1CCCC(N1)C(=O)OCC(C)(C)C2 ?
Solution: 69.5

Exercise: Do the same for O=C(c1ccc(F)c(F)c1Nc1ccc(I)cc1F)N1CC(O)([C@@H]2CCCCN2)C1 + CCn1c(-c2cc(N3CCN(C)CC3)cnc2C(C)OC)c2c3cc(ccc31)-c1csc(n1)CC(NC(=O)C1CC1C)C(=O)N1CCCC(N1)C(=O)OCC(C)(C)C2 please
Solution: 71.4

Exercise: Repeat for the following compound: CCN1CCN(Cc2ccc(Nc3ncc(F)c(-c4cc(F)c5nc(C)n(C(C)C)c5c4)n3)nc2)CC1 + CCn1c(-c2cc(N3CCN(C)CC3)cnc2C(C)OC)c2c3cc(ccc31)-c1csc(n1)CC(NC(=O)C1CC1C)C(=O)N1CCCC(N1)C(=O)OCC(C)(C)C2
Solution: 86.8
